Ref: ChEMBL document CHEMBL1201862

Test system: KM-20L2
EXPERIMENT DESCRIPTION: NCI tumour cell line growth inhibition, 48 h
Activity calls are given as the source filed them. No stated cut-off is given here; in the data, active = GI50 up to about 1.1 µM and inactive = higher.
ATTRIBUTE MEASURED: GI50

COMPOUND	GI50
COC1CCCc2c(OC(C)=O)ccc(OC(C)=O)c21 (configuration not stated)	> 100 µM (inactive)

// Input: O=C1CCC2CCc3cccc4oc1c2c34 (configuration not stated) . Output its GI50 only. > 100 µM (inactive)

// Input: COc1ccc2c(c1)CCN1C3=C(CCC3)C(=O)C[C@@H]21 . Output its GI50 only. > 100 µM (inactive)

// Input: Cc1ccc(N(O)C(C)(C)C)cc1 . Output its GI50 only. > 100 µM (inactive)

// Input: O=C(NCCCCCCNC(=O)n1cc(F)c(=O)[nH]c1=O)NCCCOCCOCCCNC(=O)C(O)C(O)C(O)C(O)CO (configuration not stated) . Output its GI50 only. > 2.5 µM (inactive)

// Input: CCN(CC)CCOc1ccc(/C=C(\C#N)c2ccc(OCCN(CC)CC)cc2)cc1 . Output its GI50 only. 1.56 µM (inactive)

// Input: CNC(=O)CN(CC(N)=O)C(=O)NC . Output its GI50 only. > 100 µM (inactive)
